Test: qHTS assay to identify small molecule antagonists of the glucocorticoid receptor (GR) signaling pathway - cell viability counter screen (AID 720693); note: nearly all actives have a fitted effect of over 55% in size
Conditions: GR-bla HeLa viability, CellTiter-Glo luminescence, 18 h, with 5 nM dexamethasone present; series mostly up to 58.5 µM
Inconclusive results are not listed. The source made the active and inactive calls. Calls come from the whole dose curve; as a rule, active = well fitted cell-killing curve with a large enough effect in the repeat runs; inconclusive = weak or mixed curves, or effect the other way; inactive = no such curve, though single readings can be large or run the other way.
Your reply should match one of these outcome classes. active, inactive

>  <molecule>
OCC(CO)N[C@H]1C[C@](O)(CO)[C@@H](O)[C@H](O)[C@H]1O

>  <cat>
inactive

$$$$
>  <molecule>
CC[C@H]1CN2CCc3cc(OC)c(OC)cc3[C@@H]2C[C@@H]1C[C@H]1NCCc2cc(OC)c(OC)cc21

>  <cat>
active

$$$$
>  <molecule>
C=C(C)C1CC=C(C)C(OC(C)=O)C1 (configuration not stated)

>  <cat>
inactive

$$$$
>  <molecule>
CCCOC(=O)c1cc(O)c(O)c(O)c1

>  <cat>
inactive

$$$$
>  <molecule>
CCCCN(CCO)CCCC

>  <cat>
inactive

$$$$
>  <molecule>
C=C(C)C(=O)O

>  <cat>
inactive

$$$$
>  <molecule>
CC(N)=O

>  <cat>
inactive

$$$$
>  <molecule>
CCN(CC)C(=O)Nc1ccc(OCC(O)CNC(C)(C)C)c(C(C)=O)c1 (configuration not stated)

>  <cat>
inactive

$$$$
>  <molecule>
c1ccc2c(c1)-c1cccc3c1c-2cc1ccccc13

>  <cat>
inactive

$$$$
>  <molecule>
CCN(CC)c1ccc2c(C)cc(=O)oc2c1

>  <cat>
inactive

$$$$

Tell me the recorded outcome of this test for CN1C(=O)c2ccc([N+](=O)[O-])cc2C1=O . inactive

State the result this test recorded for O=C1Nc2ccccc2C1(c1ccc(O)cc1)c1ccc(O)cc1 . inactive

Record request — test call for CCC(=O)/C=C/C1C(C)=CCCC1(C)C (configuration not stated) inactive

# lookup: test call for CCCCC/C=C/CC1CC(=O)OC1=O (configuration not stated) inactive

Recorded call for O=C(O)c1cccc(C(=O)O)c1 ? inactive

* * *

Assay: qHTS assay to identify small molecule agonists of the peroxisome proliferator-activated receptor delta (PPARd) signaling pathway - cell viability counter screen (AID 743211); note: nearly all actives have a fitted effect of over 55% in size
Conditions: PPARd-bla HEK293H viability, CellTiter-Glo luminescence, 17 h; series mostly up to 62.6 µM
Description: U.S. Tox21 Program National Center for Advancing Translational Sciences [NCATS] NIH Chemical Genomics Center [NCGC] U.S. Environmental Protection Agency [EPA] National Institutes of Environmental Health Sciences [NIEHS] National Toxicology Program [NTP] U.S. Food and Drug Administration [FDA] […]
Results filed as inconclusive are left out. Activity calls are given as the source filed them. Calls come from the whole dose curve; as a rule, active = well fitted cell-killing curve with a large enough effect in the repeat runs; inconclusive = weak or mixed curves; inactive = no such curve, though single readings can be large or run the other way.
Field 'call' accepts yes for active, no for inactive

Entry CC(=O)C1=C(C)[C@@H]2C[C@@]3(C1)[C@H](C)CC[C@H]3C2(C)C : call = ? no

I would be grateful if you could indicate the recorded call for Cc1cc(C2(c3cc(C)c(O)cc3C)OS(=O)(=O)c3ccccc32)c(C)cc1O . no

Record lookup: outcome of this test for CCCNC(C)C(=O)Nc1ccccc1C (stereo unspecified) ? no

Returns: the outcome recorded for Nc1nc2ccccc2[nH]1 in this assay. no

Please state the recorded outcome for this molecule: CC[C@H]1CN2CCc3cc(OC)c(OC)cc3[C@@H]2C[C@@H]1C[C@H]1NCCc2cc(OC)c(OC)cc21 yes

Look up the recorded call for CC(C)CCOCc1ccccc1 in this test. no

I'd appreciate the recorded outcome for CCOC(=O)C(C)C(C)=O (stereo unspecified) from this test. no

How was CC(=O)OCCOCCOCCOC(C)=O classified in this test? no

For CC[C@@H](N)CO , which call appears in the assay record? no

Kindly provide the recorded test outcome for the following molecule: BrC1CCC(Br)C(Br)CCC(Br)C(Br)CCC1Br (stereo unspecified) yes

Recorded call for CC[C@]1(O)C[C@@H]2CN(CCc3c([nH]c4ccccc34)[C@@](C(=O)OC)(c3cc4c(cc3OC)N(C)[C@H]3[C@@](O)(C(=O)OC)[C@H](OC(C)=O)[C@]5(CC)C=CCN6CC[C@]43[C@@H]65)C2)C1 ? no

Where these numbers come from: PubChem BioAssay (Tox21)
